targetOrTestSystem: UniProt Q8K4Z4
Sequence (Q8K4Z4 whole entry): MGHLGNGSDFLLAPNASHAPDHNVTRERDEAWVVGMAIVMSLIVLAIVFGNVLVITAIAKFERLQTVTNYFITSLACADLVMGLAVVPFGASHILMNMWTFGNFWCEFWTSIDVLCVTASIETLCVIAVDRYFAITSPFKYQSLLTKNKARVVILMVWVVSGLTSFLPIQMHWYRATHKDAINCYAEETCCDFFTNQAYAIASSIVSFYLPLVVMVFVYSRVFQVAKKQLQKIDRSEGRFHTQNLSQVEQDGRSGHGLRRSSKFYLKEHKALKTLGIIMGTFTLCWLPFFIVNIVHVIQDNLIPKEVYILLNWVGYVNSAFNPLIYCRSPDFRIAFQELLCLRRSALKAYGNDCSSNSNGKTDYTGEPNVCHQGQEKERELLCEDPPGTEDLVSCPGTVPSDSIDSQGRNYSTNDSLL
method: Agonistic activity (beta2- adrenergic) for the percent maximal relaxation of isolated guinea pig trachea
pEC50: −log10 of the molar value.
measurementName: pEC50

molecule="CC(C)(C)NCC(O)COc1cc(O)c(O)cc1F (centres undefined)" limitoperator=< reportedresult=5.00
molecule="CC(C)(C)NCC(O)COc1ccc(O)c(O)c1 (centres undefined)" limitoperator== reportedresult=6.89
molecule="CC(C)NCC(O)c1ccc(O)c(O)c1 (centres undefined)" limitoperator== reportedresult=7.24
molecule="CC(C)(C)NCC(O)COc1ccc(O)c(O)c1F (centres undefined)" limitoperator== reportedresult=7.42

* * *

targetOrTestSystem: Beta-1 adrenergic receptor (Cavia porcellus, UniProt B0FL73)
Sequence (B0FL73 whole entry): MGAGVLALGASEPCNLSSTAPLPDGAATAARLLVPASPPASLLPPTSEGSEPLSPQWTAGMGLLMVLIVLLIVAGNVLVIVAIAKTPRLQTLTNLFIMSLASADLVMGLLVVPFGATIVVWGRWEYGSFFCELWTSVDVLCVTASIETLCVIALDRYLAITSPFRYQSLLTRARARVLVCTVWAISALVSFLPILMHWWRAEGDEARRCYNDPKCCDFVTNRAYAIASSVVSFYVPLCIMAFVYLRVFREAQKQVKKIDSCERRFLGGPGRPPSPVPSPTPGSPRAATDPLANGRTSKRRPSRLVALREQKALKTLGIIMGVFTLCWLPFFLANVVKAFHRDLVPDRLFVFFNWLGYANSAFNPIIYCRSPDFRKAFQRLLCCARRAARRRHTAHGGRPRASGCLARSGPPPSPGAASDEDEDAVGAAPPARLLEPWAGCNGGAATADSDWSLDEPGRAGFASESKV
method: Agonistic activity (beta-1 adrenergic receptor) for the percent maximal increase in contraction rate of isolated guinea pig atria
pEC50: −log10 of the molar value.
Overview of recorded pEC50 for various compounds
measurementName: pEC50

compound="CC(C)(C)NCC(O)COc1cc(O)c(O)cc1F (stereo not drawn)" targetortestsystem="Beta-1 adrenergic receptor (Cavia porcellus, UniProt B0FL73)" reportedresult=6.76
compound="CC(C)(C)NCC(O)COc1ccc(O)c(O)c1F (stereo not drawn)" targetortestsystem="Beta-1 adrenergic receptor (Cavia porcellus, UniProt B0FL73)" reportedresult=8.07
compound="CC(C)(C)NCC(O)COc1ccc(O)c(O)c1 (stereo not drawn)" targetortestsystem="Beta-1 adrenergic receptor (Cavia porcellus, UniProt B0FL73)" reportedresult=8.33

* * *

targetOrTestSystem: Beta-1 adrenergic receptor (Rattus norvegicus, UniProt P18090)
Sequence (P18090 whole entry): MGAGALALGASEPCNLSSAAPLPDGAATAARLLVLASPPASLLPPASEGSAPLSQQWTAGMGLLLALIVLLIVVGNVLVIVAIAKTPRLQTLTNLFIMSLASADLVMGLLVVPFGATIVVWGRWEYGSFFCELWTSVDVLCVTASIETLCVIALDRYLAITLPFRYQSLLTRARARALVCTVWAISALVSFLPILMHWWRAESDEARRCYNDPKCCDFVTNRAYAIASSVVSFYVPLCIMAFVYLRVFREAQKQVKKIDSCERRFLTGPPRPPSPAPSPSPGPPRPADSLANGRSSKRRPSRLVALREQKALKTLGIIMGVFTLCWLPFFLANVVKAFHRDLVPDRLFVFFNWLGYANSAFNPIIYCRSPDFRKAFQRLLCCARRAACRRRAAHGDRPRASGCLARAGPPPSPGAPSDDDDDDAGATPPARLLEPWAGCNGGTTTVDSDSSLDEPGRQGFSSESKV
pKi: −log10 of the molar value.
measurementName: pKi

compound="CC(C)(C)NCC(O)COc1ccc(O)c(O)c1F (stereo unspecified)" measurementname=pKi reportedresult=7.22
